Here the recorded IC50 is given for each entry.
# Test system: IFNγ-induced Nitric Oxide production
# Protocol: Nitric oxide production assay in RAW 264.7 mouse macrophages
# Type: cell-based
# Reported conditions: RAW264.7, suppression of IFNγ-induced NO production normalized to cell viability (WST-1), RAW 264.7, 24 hours IFNγ
Give a bare numeral; the unit nM is implied.

Recorded IC50, per entry:
Smiles code	IC50 / nM
CCNC(=O)[C@]12CCC(C)(C)C[C@H]1[C@H]1C(=O)C=C3[C@@]4(C)C=C(C#N)C(=O)[C@@](C)(O)[C@@H]4CC[C@@]3(C)[C@]1(C)CC2	370
COC(=O)[C@]12CCC(C)(C)C[C@H]1[C@H]1C(=O)C=C3[C@@]4(C)C=C(C#N)C(=O)[C@@](C)(COC(C)=O)[C@@H]4CC[C@@]3(C)[C@]1(C)CC2	74.6
Cc1noc([C@]23CCC(C)(C)C[C@H]2[C@H]2C(=O)C=C4[C@@]5(C)C=C(C#N)C(=O)[C@@](C)(O)[C@@H]5CC[C@@]4(C)[C@]2(C)CC3)n1	35.8

Notebook: pull reported IC50 for IFNγ-induced Nitric Oxide production, entry COCC[C@]1(C)C(=O)C(C#N)=C[C@]2(C)C3=CC(=O)[C@@H]4[C@@H]5CC(C)(C)CC[C@]5(C(=O)OC)CC[C@@]4(C)[C@]3(C)CC[C@H]21
19.5

Notebook: pull reported IC50 for IFNγ-induced Nitric Oxide production, entry COC(=O)N[C@]12CCC(C)(C)C[C@H]1[C@H]1C(=O)C=C3[C@@]4(C)C=C(C#N)C(=O)[C@@](C)(O)[C@@H]4CC[C@@]3(C)[C@]1(C)CC2
91.2
